- System: Yap1 mRNA
- ASSAY_NAME: Dose-dependent inhibition of human Yap1 in A-431 cells (Example 8, 10,000 cells per well, RTS4814)
- Type: cell-based
- SETUP_CONDITIONS: 31.3 nM; A-431 cells, 10,000 cells per well, free uptake, approximately 48 hours, RTS4814
Strand notation (5' to 3'): a small letter for the sugar, then the base; units joined by * are phosphorothioate-linked, units joined directly phosphodiester-linked; [ ] holds rarer units or linkages, { } end groups; capitals alone tell only the bases. k = constrained ethyl (cEt); [5mC] = 5-methylcytosine; d = 2'-deoxy (DNA)
// reported Yap1 mRNA, % UTC for each item listed
MEASURED_ENDPOINT: Yap1 mRNA, % UTC (% UTC)

{"SUBSTANCE": "1074755 (k[5mC]*kA*k[5mC]*dT*dT*dT*dT*dA*d[5mC]*dA*dT*dT*dA*kG*kG*kA; antisense) [compound 1074755]", "UNITS": "% UTC", "MEASURED_RESULT": 28}
{"SUBSTANCE": "1074407 (kT*kA*kA*dA*dG*dT*dA*dT*d[5mC]*dT*dT*dG*d[5mC]*kT*kG*kG; antisense) [compound 1074407]", "UNITS": "% UTC", "MEASURED_RESULT": 55}
{"SUBSTANCE": "1076494 (k[5mC]*kT*kA*dA*dT*dT*dG*dA*dA*dG*d[5mC]*dT*dG*kG*k[5mC]*kA; antisense) [compound 1076494]", "UNITS": "% UTC", "MEASURED_RESULT": 34}
{"SUBSTANCE": "1074627 (DNA k[5mC]*k[5mC]*kT*dG*dT*dT*dA*dT*dG*dA*dA*d[5mC]*d[5mC]*k[5mC]*kT*kT; antisense) [compound 1074627]", "UNITS": "% UTC", "MEASURED_RESULT": 17}
{"SUBSTANCE": "1076461 (kG*kA*kT*dT*dA*dA*dT*dA*dT*dA*dG*d[5mC]*d[5mC]*k[5mC]*k[5mC]*kT; antisense) [compound 1076461]", "UNITS": "% UTC", "MEASURED_RESULT": 65}
{"SUBSTANCE": "1075458 (antisense k[5mC]*k[5mC]*kA*d[5mC]*dA*dA*dT*dA*dT*dA*d[5mC]*dT*d[5mC]*k[5mC]*kA*kA) [compound 1075458]", "UNITS": "% UTC", "MEASURED_RESULT": 74}
{"SUBSTANCE": "1076256 (kT*kT*kA*dT*dT*dT*dA*dG*dG*d[5mC]*d[5mC]*d[5mC]*d[5mC]*kA*kT*kA; antisense) [compound 1076256]", "UNITS": "% UTC", "MEASURED_RESULT": 68}
{"SUBSTANCE": "1074792 (kA*kT*k[5mC]*dA*dA*dT*dG*dT*dG*d[5mC]*dT*d[5mC]*d[5mC]*kA*kT*k[5mC]; antisense) [compound 1074792]", "UNITS": "% UTC", "MEASURED_RESULT": 48}
{"SUBSTANCE": "1074753 (kT*kA*k[5mC]*dA*dT*dT*dA*dG*dG*dA*dA*d[5mC]*dA*kA*kG*kG; antisense) [compound 1074753]", "UNITS": "% UTC", "MEASURED_RESULT": 42}
{"SUBSTANCE": "1076067 (kG*k[5mC]*kA*dT*dA*dT*dA*dA*dG*dA*dT*dG*dT*kT*kT*kG; antisense) [compound 1076067]", "UNITS": "% UTC", "MEASURED_RESULT": 45}
{"SUBSTANCE": "1074450 (kA*k[5mC]*kT*dA*dA*dT*dG*dA*dT*dA*dG*d[5mC]*dA*k[5mC]*kT*kA; antisense) [compound 1074450]", "UNITS": "% UTC", "MEASURED_RESULT": 54}
{"SUBSTANCE": "1075138 (kA*kA*kT*dA*dA*dT*dA*dG*dA*dT*dA*d[5mC]*dT*kG*k[5mC]*k[5mC]; antisense) [compound 1075138]", "UNITS": "% UTC", "MEASURED_RESULT": 66}
{"SUBSTANCE": "1076323 (k[5mC]*kA*kA*dT*dT*dT*dA*d[5mC]*dA*dA*dG*dT*dG*kA*kG*k[5mC]; antisense) [compound 1076323]", "UNITS": "% UTC", "MEASURED_RESULT": 41}
{"SUBSTANCE": "1076003 (kA*kA*kT*dT*dT*dA*dA*dT*dG*dG*d[5mC]*dT*dT*kG*k[5mC]*kA; antisense) [compound 1076003]", "UNITS": "% UTC", "MEASURED_RESULT": 60}
{"SUBSTANCE": "1074593 (DNA kA*kG*kG*dA*dG*d[5mC]*dA*dA*dG*dT*d[5mC]*dT*dT*kG*kT*kA) [compound 1074593]", "UNITS": "% UTC", "MEASURED_RESULT": 50}
{"SUBSTANCE": "1074794 (k[5mC]*kA*kA*dA*dT*d[5mC]*dA*dA*dT*dG*dT*dG*d[5mC]*kT*k[5mC]*k[5mC]; antisense) [compound 1074794]", "UNITS": "% UTC", "MEASURED_RESULT": 56}
{"SUBSTANCE": "1074728 (antisense kT*kG*kA*dG*dG*dT*dA*dT*dA*dA*d[5mC]*dT*dG*kG*kG*k[5mC]) [compound 1074728]", "UNITS": "% UTC", "MEASURED_RESULT": 28}
{"SUBSTANCE": "1076326 (kG*k[5mC]*kT*dA*dA*dT*dA*dA*dT*dG*dG*dA*dA*kG*kA*kG; antisense) [compound 1076326]", "UNITS": "% UTC", "MEASURED_RESULT": 53}
{"SUBSTANCE": "1075983 (kA*kT*k[5mC]*dG*dA*dA*dA*dA*dG*d[5mC]*dA*dA*dA*k[5mC]*kT*k[5mC]; antisense) [compound 1075983]", "UNITS": "% UTC", "MEASURED_RESULT": 81}
{"SUBSTANCE": "1074851 (kA*kT*kT*dG*dT*dT*dA*dT*dG*dA*dT*dA*dG*kG*k[5mC]*kA; antisense) [compound 1074851]", "UNITS": "% UTC", "MEASURED_RESULT": 51}
{"SUBSTANCE": "1074420 (kG*kA*kT*dT*d[5mC]*dT*dT*dT*dA*dG*dA*dG*d[5mC]*k[5mC]*kA*kA; antisense) [compound 1074420]", "UNITS": "% UTC", "MEASURED_RESULT": 38}
